Target: legumain (Homo sapiens, UniProt Q99538)
Construct: purchased R&D Systems 2199-CY
Sequence (Q99538 18-323 limits assumed): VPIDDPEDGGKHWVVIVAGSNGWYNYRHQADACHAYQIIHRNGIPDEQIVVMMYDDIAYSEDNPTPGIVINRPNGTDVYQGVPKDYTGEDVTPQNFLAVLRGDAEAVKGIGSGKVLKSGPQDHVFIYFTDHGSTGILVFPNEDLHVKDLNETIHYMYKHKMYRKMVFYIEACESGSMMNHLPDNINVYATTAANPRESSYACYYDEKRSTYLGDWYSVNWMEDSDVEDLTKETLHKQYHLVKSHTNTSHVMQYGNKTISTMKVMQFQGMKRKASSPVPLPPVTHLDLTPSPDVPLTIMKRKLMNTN
Assay: Legumain assay (enzymatic cleavage)
Type: biochemical
Conditions: recombinant human legumain, rhLegumain 1 ng/μl, substrate 3 μM, pH 5.0, read-out: half-life of legumain-mediated cleavage to the target compound (converted)
measured-property: half-life at 3 μM (min)
Answer format: numeric, min implied, no suffix.

Prompt: Give the measured half-life at 3 μM for CNC(=O)[C@H](CCN(C(=O)CO)[C@@H](c1cc(-c2cc(F)ccc2F)cn1Cc1ccccc1)C(C)(C)C)NC(=O)[C@H](CC(N)=O)NC(=O)[C@H](C)NC(=O)[C@H](C)NC(=O)Cc1ccncc1
Response: 24

Values were extracted from patent US11660351B2.
